test system: HLM; assay: Metabolism: breakdown of test substance by HLM; type: in vitro ADME
Give True when the value for Breakdown of Substrate after 60 minutes' Incubation with HLM is at least 20. Give False when it is less.

Some solved cases for reference:
- smilesRepresentation: "CN(C)c1c(Br)ccc(NC2=NCCN2)c1Cl"
  className: "True"
- smilesRepresentation: "Cc1c(NC2=NCCN2)cc(Cl)cc1N(C)C"
  className: "False"
- smilesRepresentation: "Cc1c(N(C)C)cc(Cl)c(Br)c1NC1=NCCN1"
  className: "True"
- smilesRepresentation: "Cc1c(N(C)C)cc(Br)c(Br)c1NC1=NCCN1"
  className: "True"
- smilesRepresentation: "CN(C)c1cccc(NC2=NCCN2)c1Cl"
  className: "False"

Okay, now this compound:
Incoming: Can `Cc1c(NC2=NCCN2)cc(Br)cc1N(C)C` be said to have Breakdown of Substrate after 60 minutes' Incubation with HLM at or above 20?
Outgoing: False

* * *

target: CYP2D6 (Homo sapiens, UniProt P10635); experiment: Metabolism: breakdown of test substance by enzyme CYP2D6; assay type: in vitro ADME
Sequence (P10635 whole entry): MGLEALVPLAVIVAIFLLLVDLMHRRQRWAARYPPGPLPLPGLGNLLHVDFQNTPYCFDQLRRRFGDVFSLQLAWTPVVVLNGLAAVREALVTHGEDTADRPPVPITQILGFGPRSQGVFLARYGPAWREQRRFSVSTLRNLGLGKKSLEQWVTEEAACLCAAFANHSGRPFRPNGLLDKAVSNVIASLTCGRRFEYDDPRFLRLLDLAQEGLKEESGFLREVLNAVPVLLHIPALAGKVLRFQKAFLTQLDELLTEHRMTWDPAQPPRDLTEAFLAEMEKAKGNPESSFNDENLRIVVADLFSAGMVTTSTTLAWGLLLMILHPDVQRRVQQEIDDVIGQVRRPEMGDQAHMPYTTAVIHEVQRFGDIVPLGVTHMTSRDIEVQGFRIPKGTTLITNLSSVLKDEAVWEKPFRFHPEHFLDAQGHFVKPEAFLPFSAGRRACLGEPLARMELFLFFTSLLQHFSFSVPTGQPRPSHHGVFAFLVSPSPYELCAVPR
Field: label. Allowed values: rule met (% Breakdown of Substrate after 30 minutes' Incubation with CYP2D6 < 30%) or rule not met (% Breakdown of Substrate after 30 minutes' Incubation with CYP2D6 >= 30%).

Some solved cases for reference:
- compound: "Cc1c(NC2=NCCN2)cc(Cl)cc1N(C)C [Compound 4]"
  className: "rule not met"
- compound: "Cc1c(NC2=NCCN2)cc(Br)cc1N(C)C [Compound 3]"
  className: "rule not met"

Incoming: API: query returns whether the compound falls strictly under 30% in % Breakdown of Substrate after 30 minutes' Incubation with CYP2D6. Query: Cc1c(N(C)C)cc(Br)c(Br)c1NC1=NCCN1 [Compound 5]
Outgoing: rule met

Incoming: API: query returns whether the compound falls strictly under 30% in % Breakdown of Substrate after 30 minutes' Incubation with CYP2D6. Query: CN(C)c1c(Br)ccc(NC2=NCCN2)c1Cl [Compound 7]
Outgoing: rule not met

Incoming: API: query returns whether the compound falls strictly under 30% in % Breakdown of Substrate after 30 minutes' Incubation with CYP2D6. Query: Cc1c(N(C)C)cc(Cl)c(Br)c1NC1=NCCN1 [Compound 1]
Outgoing: rule not met

* * *

Counter-ions that a name gives are not always drawn.
melting point for assorted compounds

Some solved entries appear below for comparison.
- compound: "CN(C)c1c(Br)ccc(NC2=NCCN2)c1Cl [Compound 7]"
  melting point: "150 to 155 °C"
- compound: "CN(C)c1cccc(NC2=NCCN2)c1Cl [Compound 6]"
  melting point: "146 to 148 °C"
- compound: "Cc1c(N(C)C)cc(Cl)c(Br)c1NC1=NCCN1 (as salt: hydrochloride) [Compound 1]"
  melting point: "239 to 240 °C"
- compound: "CN(C)c1ccc(Br)c(NC2=NCCN2)c1Cl"
  melting point: "142 to 145 °C"

Now for the compound whose melting point we want.
Incoming: State, in one line, measured melting point of Cc1c(NC2=NCCN2)cc(Br)cc1N(C)C [Compound 3]
Outgoing: 140 to 143 °C
